Study target: acetylcholinesterase (AChE) (Homo sapiens, UniProt P22303)
Sequence (P22303 other isoform, or with tags, fused parts or gaps): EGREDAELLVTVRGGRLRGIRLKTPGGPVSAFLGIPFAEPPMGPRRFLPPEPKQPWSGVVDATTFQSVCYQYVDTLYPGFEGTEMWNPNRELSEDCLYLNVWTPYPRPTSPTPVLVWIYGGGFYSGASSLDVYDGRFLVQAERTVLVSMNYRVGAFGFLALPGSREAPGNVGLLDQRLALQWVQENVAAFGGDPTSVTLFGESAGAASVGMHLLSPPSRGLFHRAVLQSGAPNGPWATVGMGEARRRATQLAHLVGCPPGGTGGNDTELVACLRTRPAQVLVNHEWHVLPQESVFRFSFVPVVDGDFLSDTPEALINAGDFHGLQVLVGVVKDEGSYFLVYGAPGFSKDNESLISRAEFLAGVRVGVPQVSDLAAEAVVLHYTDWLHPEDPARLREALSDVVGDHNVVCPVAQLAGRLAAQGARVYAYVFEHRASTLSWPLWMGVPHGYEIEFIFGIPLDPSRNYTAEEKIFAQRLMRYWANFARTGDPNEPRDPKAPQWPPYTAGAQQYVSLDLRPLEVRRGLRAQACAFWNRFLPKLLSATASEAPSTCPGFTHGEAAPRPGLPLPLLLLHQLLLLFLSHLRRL

| Compound structure string | Output unit | IC50 |
| --- | --- | --- |
| O=C1[C@@H]2CCCN2C(=O)[C@@H]2CCCN12 | µM | 160 |

Cited source: paper PMC3509069
